experiment: qHTS assay to identify small molecule antagonists of the farnesoid-X-receptor (FXR) signaling pathway - cell viability counter screen (AID 743221); conditions: FXR-bla HEK293T viability, CellTiter-Glo luminescence, 16 h; series mostly up to 62.6 µM; also: nearly all actives have a fitted effect of over 50% in size; also: potency is read from the fitted curve at half-maximal effect
Inconclusive results are not listed. Activity calls are given as the source filed them. Calls follow the shape of the dose curve; as a rule, active = well fitted cell-killing curve with a large enough effect in the repeat runs (not every such curve was filed as active); inconclusive = weak or mixed curves, or effect the other way; inactive = no such curve, though single readings can be large or run the other way.
measurementName: Potency

A selection of reference data follows.
compound=c1ccc2cc3c4ccccc4c4ccccc4c3cc2c1 valuemeasured=inactive
compound="CCC(C)(C)c1ccc(CC(C)CN2C[C@@H](C)O[C@@H](C)C2)cc1 (stereo partly specified)" valuemeasured=inactive
compound=CCCCCN=C(N)N/N=C/c1c[nH]c2ccc(OC)cc12 valuemeasured="29.8 µM (active)"
compound=CCSCC valuemeasured=inactive
compound=CN(C)CCOc1ccc(/C(=C(/CCCl)c2ccccc2)c2ccccc2)cc1 valuemeasured="40.9 µM (active)"

Could you now consider this next compound?
Please fill in: Potency reported for CN1CC[C@H](c2c(O)cc(O)c3c(=O)cc(-c4ccccc4Cl)oc23)[C@H](O)C1 = inactive

----------
test: qHTS RealTime-Glo MT Cell Viability Assay in HEK293 cells - 8 hour (AID 1224887); settings: RealTime-Glo luminescence; series mostly up to 76.8 µM; also: nearly all actives have a fitted effect of over 50% in size
Inconclusive results are not listed. Calls of active or inactive are those of the source. Calls follow the shape of the dose curve; as a rule, active = well fitted cell-killing curve with a large enough effect in the repeat runs; inconclusive = weak or mixed curves, or effect the other way; inactive = flat fitted curve, though single readings scatter.
The reply should name one outcome from active, inactive

Some solved entries appear below for comparison.
molecule=NCc1ccco1 group=inactive
molecule=O=[N+]([O-])c1ccc(CO)cc1 group=inactive
molecule=CCOC(=O)[C@H](O)[C@@H](O)C(=O)OCC group=inactive
molecule=Cc1cc(F)ccc1-c1cc(N2CC[C@@H](O)[C@H]2CO)ncc1N(C)C(=O)C(C)(C)c1cc(C(F)(F)F)cc(C(F)(F)F)c1 group=active
molecule=CCCCCCCCOC(=O)c1cc(O)c(O)c(O)c1 group=active

Assay result, entry CCOC(=O)OC(=O)OCC — outcome?
inactive

Assay result, entry CCC(O)CO (stereo not drawn) — outcome?
inactive

Assay result, entry CN(C)CCOc1ccc(/C(=C(/CCCl)c2ccccc2)c2ccccc2)cc1 — outcome?
active

----------
assay: qHTS assay to identify small molecule antagonists of the estrogen receptor alpha (ER-alpha) signaling pathway using the BG1 cell line - cell viability counter screen (AID 743081); settings: BG1Luc4E2 viability, CellTiter-Fluor, 22 h; series mostly up to 70.3 µM;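 also: compound given together with 17beta-estradiol as the ER stimulus; nearly all actives have a fitted effect of over 45% in size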
Records with an inconclusive call do not appear. Activity calls are given as the source filed them. The call rests on the fitted dose curve; in most records, active means well fitted cell-killing curve with a large enough effect in the repeat runs; inconclusive means weak or mixed curves, or effect the other way; inactive means flat fitted curve, though single readings scatter.
The reply should name one outcome from true (1) = active, false (0) = inactive

Some solved entries appear below for comparison.
smilesstring=CC(=O)OCC1=C(C(=O)O)N2C(=O)[C@@H](NC(=O)Cc3ccccc3)[C@H]2SC1 group="false (0)"
smilesstring=O=C(O)c1cc(O)c2c(c1)[C@H]([C@H]1c3cc(C(=O)O)cc(O)c3C(=O)c3c(O[C@@H]4O[C@H](CO)[C@@H](O)[C@H](O)[C@H]4O)cccc31)c1cccc(O[C@@H]3O[C@H](CO)[C@@H](O)[C@H](O)[C@H]3O)c1C2=O group="false (0)"
smilesstring=Cc1cc(-c2ccc(N=Nc3ccc4c(S(=O)(=O)O)cc(S(=O)(=O)O)c(N)c4c3O)c(C)c2)ccc1N=Nc1ccc2c(S(=O)(=O)O)cc(S(=O)(=O)O)c(N)c2c1O group="false (0)"

// next entry
Assay result, entry CC(=O)[C@]1(O)Cc2c(O)c3c(c(O)c2[C@@H](O[C@H]2C[C@H](N)[C@H](O)[C@H](C)O2)C1)C(=O)c1ccccc1C3=O — outcome?
true (1)

----------
assay: qHTS assay to identify small molecule antagonists of the retinoid-related orphan receptor gamma (ROR-gamma) signaling pathway - cell viability counter screen (AID 1159520); conditions: Tet-on RORgamma CHO cells viability, ATP luminescence, 16 h; series mostly up to 92.4 µM; also: nearly all actives have a fitted effect of over 50% in size
Results filed as inconclusive are left out. The source made the active and inactive calls. Calls follow the shape of the dose curve; as a rule, active = well fitted cell-killing curve with a large enough effect in the repeat runs; inconclusive = weak or mixed curves, or effect the other way; inactive = no such curve, though single readings can be large or run the other way.
The reply should name one outcome from yes (active), no (inactive)

Some solved entries appear below for comparison.
smilesstring=Cc1c(Cl)c(=O)oc2cc(O)ccc12 group=no
smilesstring=C/C=C/C(=O)OCC(C)C group=no
smilesstring=Nc1c(Br)cc([N+](=O)[O-])cc1Br group=no

Assay result, entry CCOC(=O)[C@H](O)[C@@H](O)C(=O)OCC — outcome?
no

Assay result, entry COC(=O)c1ccc([N+](=O)[O-])cc1 — outcome?
no

Assay result, entry CN1CCN(c2ccccc2/C=C2\SCCN(c3ccc(Cl)c(Cl)c3)C2=O)CC1 — outcome?
yes

Assay result, entry c1ccc(-c2ccccc2-c2ccccc2)cc1 — outcome?
no

----------
Target: Cytochrome P450 1A2 (Homo sapiens)
Assay: Cytochrome P450 Family 1 Subfamily A Member 2 (CYP1A2) small molecule antagonists: luciferase reporter qHTS assay (AID 1671199); also: nearly all actives have a fitted effect of over 50% in size; also: potency is read from the fitted curve at half-maximal effect
Conditions: P450-Glo CYP1A2 enzyme, luciferin luminescence, 1 h; series mostly up to 115 µM
From the text: National Center for Advancing Translational Sciences [NCATS] U.S. Environmental Protection Agency [EPA] National Institutes of Environmental Health Sciences [NIEHS] National Toxicology Program [NTP] U.S. Food and Drug Administration [FDA] Cytochrome P450 (CYP) enzymes are membrane-bound hemeproteins that play a key role in metabolism of drugs and xenobiotics. […] The luciferin products formed are detected with a luciferin detection reagent, and the amount of light produced is proportional to CYP activity. […]
Records with an inconclusive call do not appear. The source made the active and inactive calls. Calls come from the whole dose curve; as a rule, active = well fitted inhibition curve with a large enough effect in the repeat runs; inconclusive = weak or mixed curves; inactive = no such curve, though single readings can be large or run the other way.
measurementName: Potency

A selection of reference data follows.
molecule=O=C(NCc1ncc(C(F)(F)F)cc1Cl)c1c(Cl)cccc1Cl valuemeasured="31.7 µM (active)"
molecule=O=C(c1ccccc1)c1ccc(Cl)cc1 valuemeasured="5.03 µM (active)"
molecule=c1ccc(-c2ccccc2-c2ccccc2)cc1 valuemeasured="3.17 µM (active)"
molecule=C=CC(C)(C)O valuemeasured=inactive
molecule=CCCCCCCCSCc1cc(C)c(O)c(CSCCCCCCCC)c1 valuemeasured="25.2 µM (active)"
molecule=CC(C)(c1ccc(Oc2ccc(N)cc2)cc1)c1ccc(Oc2ccc(N)cc2)cc1 valuemeasured=inactive
molecule="NC(=O)C1CO1 (centres undefined)" valuemeasured=inactive
molecule="CC(Cc1ccc(O)c(O)c1)C(C)Cc1ccc(O)c(O)c1 (centres undefined)" valuemeasured=inactive

Please fill in: Potency reported for [Cl][Sc]([Cl])[Cl] = inactive

----------
molecular target: Estrogen receptor (Homo sapiens); experiment: qHTS assay to identify small molecule agonists of the estrogen receptor alpha (ER-alpha) signaling pathway using the BG1 cell line (AID 743079); details: BG1Luc4E2 cells, ERE-luciferase agonist, 22 h; series mostly up to 70.3 µM; also: nearly all actives have a fitted effect of over 20% in size
Results filed as inconclusive are left out. Activity calls are given as the source filed them. Calls come from the whole dose curve; as a rule, active = well fitted activation curve with a large enough effect in the repeat runs; inconclusive = weak or mixed curves, or effect the other way; inactive = no such curve, though single readings can be large or run the other way.
The reply should name one outcome from active, inactive

molecule=Cc1cc(=O)c(C(=O)N[C@@H](C(=O)N[C@@H]2C(=O)N3C(C(=O)O)=C(CSc4nnnn4C)CS[C@H]23)c2ccc(O)cc2)c[nH]1 group=active
molecule="C=CC1=C(C(=O)O)N2C(=O)[C@@H](NC(=O)/C(=N/OCC(=O)O)c3csc(N)n3)[C@H]2SC1 (stereo in doubt)" group=inactive
molecule=CCOc1ccc([N+](=O)[O-])cc1 group=active
molecule=CCCC(=O)c1cc(O)c(O)cc1O group=inactive

Assay result, entry CNC(=O)C[C@@H](N)C(=O)N[C@@H](C(=O)N[C@@H]1C(=O)N2[C@@H]1SC(C)(C)[C@@H]2C(=O)O)c1ccc(O)cc1 — outcome?
inactive

Assay result, entry CC(O)(c1ccc(Cl)cc1)c1ccc(Cl)cc1 — outcome?
inactive

Assay result, entry CCC(O)c1ccccc1 (stereo not given) — outcome?
inactive

Assay result, entry CC(C)(Oc1ccc(C2CCCc3ccccc32)cc1)C(=O)O (stereo not given) — outcome?
active

----------
assay: qHTS RealTime-Glo MT Cell Viability Assay in HepG2 cells - 16 hour (AID 1224885); conditions: RealTime-Glo luminescence; series mostly up to 76.8 µM; also: nearly all actives have a fitted effect of over 50% in size
Inconclusive results are not listed. Activity calls are given as the source filed them. Calls follow the shape of the dose curve; as a rule, active = well fitted cell-killing curve with a large enough effect in the repeat runs; inconclusive = weak or mixed curves; inactive = flat fitted curve, though single readings scatter.
The reply should name one outcome from active, inactive

compound="CC(C)(C)c1ccc(OC2CCCCC2O)cc1 (stereo not drawn)" group=inactive
compound="c1ccc(-c2ccc(C(c3ccccc3)n3ccnc3)cc2)cc1 (stereo not drawn)" group=inactive
compound=CCCOC(=O)c1ccc(O)cc1 group=inactive
compound=COCCC(=O)OC group=inactive
compound=CC1(C)[C@H]2CC[C@]1(C)C(=O)C2 group=inactive
compound=CC(=O)CC(N)=O group=inactive

Assay result, entry C=Cc1ccc(O)c(OC)c1 — outcome?
inactive

Assay result, entry C/C(=C\c1ccc(C(=O)O)cc1)c1ccc2c(c1)C(C)(C)CCC2(C)C — outcome?
inactive

Assay result, entry CN1CCN(c2ccccc2/C=C2\SCCN(c3ccc(Cl)c(Cl)c3)C2=O)CC1 — outcome?
active

Assay result, entry [Cl][Dy]([Cl])[Cl] — outcome?
inactive

Assay result, entry O=C(Nc1ccc([N+](=O)[O-])cc1)Nc1ccc([N+](=O)[O-])cc1 (tested in a mixture with another compound) — outcome?
inactive

Assay result, entry CCOC=C(C(=O)OCC)C(=O)OCC — outcome?
inactive

Assay result, entry c1ccc(-c2nc3ccccc3[nH]2)cc1 — outcome?
inactive
